Target: Broad substrate specificity ATP-binding cassette transporter ABCG2 (Homo sapiens, UniProt Q9UNQ0)
Sequence (Q9UNQ0 whole entry): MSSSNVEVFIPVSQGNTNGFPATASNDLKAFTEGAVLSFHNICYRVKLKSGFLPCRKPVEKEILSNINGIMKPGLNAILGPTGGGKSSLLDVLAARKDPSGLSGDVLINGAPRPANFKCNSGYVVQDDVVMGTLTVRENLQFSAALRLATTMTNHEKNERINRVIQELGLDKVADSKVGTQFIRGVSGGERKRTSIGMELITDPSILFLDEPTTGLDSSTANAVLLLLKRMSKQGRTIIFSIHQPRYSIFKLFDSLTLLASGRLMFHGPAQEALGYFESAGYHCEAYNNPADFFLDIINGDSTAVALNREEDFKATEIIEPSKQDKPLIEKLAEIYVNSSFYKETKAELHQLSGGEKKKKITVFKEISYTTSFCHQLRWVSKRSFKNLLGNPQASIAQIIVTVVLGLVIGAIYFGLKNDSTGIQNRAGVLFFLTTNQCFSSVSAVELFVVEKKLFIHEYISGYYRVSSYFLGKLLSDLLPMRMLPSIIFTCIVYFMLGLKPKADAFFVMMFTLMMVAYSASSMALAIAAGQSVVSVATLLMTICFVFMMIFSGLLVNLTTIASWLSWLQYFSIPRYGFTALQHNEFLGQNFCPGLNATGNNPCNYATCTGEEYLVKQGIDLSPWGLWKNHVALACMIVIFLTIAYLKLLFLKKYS
Experiment: Inhibition of c-terminal GFP-tagged human ABCG2 expressed in MDCK2 cells preincubated for 30 mins before Hoechst 33342 addition by Hoechst 33342 accumulation assay
Assay type: cell-based
pIC50: −log10 of the molar value.
Response key: YES means pIC50 >= 6; NO means pIC50 < 6.

> print(dat)
                               given.smiles  category
1    CSc1cccc(Nc2cc(-c3ccccc3)nc3ccccc23)c1        NO
2  COc1ccc(Nc2nc(-c3ccccc3)nc3ccccc23)cc1OC       YES
3   N#Cc1ccc(Nc2nc(-c3ccccc3)nc3ccccc23)cc1       YES
4     Fc1cccc(Nc2cc(-c3ccccc3)nc3ccccc23)c1        NO
5     Ic1ccc(Nc2nc(-c3ccccc3)nc3ccccc23)cc1       YES
6  CC(=O)Nc1cccc(Nc2nc(-c3ccccc3)nc3ccccc23)c1       YES
7  O=C(O)c1ccc(Nc2nc(-c3ccccc3)nc3ccccc23)cc1        NO
8     Oc1ccc(Nc2nc(-c3ccccc3)nc3ccccc23)cc1       YES
